- ASSAY NAME: acute toxicity on mice
- APPLIED CONDITIONS: mouse, in vivo, ip
MEASURED ENDPOINT: LD50
Please state the value followed by its unit.

Lab note: measured LD50 of CCC1/C=C/C=C/CC(C)C(O)C(C)(O)C(=O)C(C)C(O)C(C)C(=O)C(C)C(O)C(C)/C=C/C(=O)OC2C(C)C(CC1)OC1(CCC(C)C(CC(C)O)O1)C2CC (stereo not shown) was 0.05 mg/kg
